# reported MIC; entries follow
- Test system: Acinetobacter
- protocol-description: Antimicrobial activity against Acinetobacter baumannii-Acinetobacter calcoaceticus complex isolated from diabetic patient with calcaneal osteomyelitis by broth microdilution assay
- Type: functional
reported-property: MIC (µg/mL)

molecule	reported-property	display-unit	readout-relation	result-number
C[C@H]1c2cccc(O)c2C(=O)C2=C(O)[C@]3(O)C(=O)C(C(N)=O)=C(O)[C@@H](N(C)C)[C@@H]3[C@@H](O)[C@@H]21.O	MIC	µg/mL	=	8
O=C(O)[C@H]1/C(=C/CO)O[C@@H]2CC(=O)N21	MIC	µg/mL	>	2
CC(C)(O/N=C(\C(=O)N[C@@H]1C(=O)N2C(C(=O)[O-])=C(C[n+]3ccccc3)CS[C@H]12)c1csc(N)n1)C(=O)O	MIC	µg/mL	>	64
CN(C)c1cc(NC(=O)CNC(C)(C)C)c(O)c2c1C[C@H]1C[C@H]3[C@H](N(C)C)C(O)=C(C(N)=O)C(=O)[C@@]3(O)C(O)=C1C2=O	MIC	µg/mL	=	2
CC1(C)[C@H](C(=O)O)N2C(=O)C[C@H]2S1(=O)=O	MIC	µg/mL	>	64
NCC[C@H](O)C(=O)N[C@@H]1C[C@H](N)[C@@H](O[C@H]2O[C@H](CN)[C@@H](O)[C@H](O)[C@H]2O)[C@H](O)[C@H]1O[C@H]1O[C@H](CO)[C@@H](O)[C@H](N)[C@H]1O	MIC	µg/mL	=	8
C[C@@H](O)[C@H]1C(=O)N2C(C(=O)O)=C(SCCNC=N)C[C@H]12 [IMIPENEM ANHYDROUS]	MIC	µg/mL	=	16
CC1(C)S[C@@H]2[C@H](NC(=O)[C@H](N)c3ccccc3)C(=O)N2[C@H]1C(=O)O	MIC	µg/mL	>	8
CC1(C)S[C@@H]2[C@H](NC(=O)[C@H](C(=O)O)c3ccsc3)C(=O)N2[C@H]1C(=O)O	MIC	µg/mL	>	256
CC[C@H]1OC(=O)[C@H](C)[C@@H](O[C@H]2C[C@@](C)(OC)[C@@H](O)[C@H](C)O2)[C@H](C)[C@@H](O[C@@H]2O[C@H](C)C[C@H](N(C)C)[C@H]2O)[C@](C)(O)C[C@@H](C)CN(C)[C@H](C)[C@@H](O)[C@]1(C)O	MIC	µg/mL	=	8
CN(C)c1ccc(O)c2c1C[C@H]1C[C@H]3[C@H](N(C)C)C(O)=C(C(N)=O)C(=O)[C@@]3(O)C(O)=C1C2=O	MIC	µg/mL	=	1

Data origin, for the record: ChEMBL document CHEMBL1151430
